Values from patent US7973050B2

targetSystem: Clostridium difficile MetRS (Clostridioides difficile, UniProt Q181D9, C642S)
Sequence (Q181D9 2-645 C642S): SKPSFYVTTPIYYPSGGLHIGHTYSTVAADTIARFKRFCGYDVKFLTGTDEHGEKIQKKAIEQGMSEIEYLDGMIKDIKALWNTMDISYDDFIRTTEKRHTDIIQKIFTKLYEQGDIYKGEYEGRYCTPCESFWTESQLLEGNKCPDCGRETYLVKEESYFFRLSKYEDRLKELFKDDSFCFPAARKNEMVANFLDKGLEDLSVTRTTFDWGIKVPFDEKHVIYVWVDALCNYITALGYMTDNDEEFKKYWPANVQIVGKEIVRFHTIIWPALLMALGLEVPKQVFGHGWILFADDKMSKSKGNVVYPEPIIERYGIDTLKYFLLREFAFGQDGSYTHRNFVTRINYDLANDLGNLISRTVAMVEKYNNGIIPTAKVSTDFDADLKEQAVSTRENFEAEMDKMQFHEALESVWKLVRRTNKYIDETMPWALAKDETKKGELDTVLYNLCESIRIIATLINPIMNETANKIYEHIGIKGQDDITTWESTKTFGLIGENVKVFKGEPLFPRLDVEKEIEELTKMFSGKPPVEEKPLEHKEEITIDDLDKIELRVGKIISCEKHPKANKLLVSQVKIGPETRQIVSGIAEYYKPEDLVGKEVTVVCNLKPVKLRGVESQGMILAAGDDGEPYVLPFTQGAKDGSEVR
experiment: C. difficile MetRS inhibition (tRNA charging SPA assay)
Type: biochemical
pKi: −log10 of the molar value. Structures can show the parent of a compound that is named as a salt.
readout: pKi

Would you please look over these solved cases?
{"compound": "O=c1cc(NCCCN[C@@H]2CCNc3c(Br)cc(Br)cc32)[nH]c2ccsc12 (single isomer, unassigned) [Example 8, tri-hydrochloride]", "pKi": "10.60 to 10.82"}
{"compound": "O=c1cc(NCCCN[C@H]2CCOc3c(Br)cc(Cl)cc32)[nH]c2ccsc12 (single isomer, unassigned) [Example 5, di-hydrochloride]", "pKi": "7.10 to 7.62"}
{"compound": "O=c1cc(NCCCN[C@H]2CCOc3c(Br)cc(Br)cc32)[nH]c2ccsc12 (single isomer, unassigned) [Example 3, di-hydrochloride]", "pKi": "7.10 to 7.62"}
{"compound": "O=c1cc(NCCCN[C@H]2CCNc3c(Br)cc(Br)cc32)[nH]c2ccsc12 (single isomer, unassigned) [Example 9, tri-hydrochloride]", "pKi": "7.10 to 7.62"}
{"compound": "O=c1cc(NCCCN[C@@H]2CCOc3c(Br)cc(Cl)cc32)[nH]c2ccsc12 (single isomer, unassigned) [Example 4, di-hydrochloride]", "pKi": "10.60 to 10.82"}

Query string: Give me measured pKi, please, for this compound: O=c1cc(NCCCN[C@H]2CCOc3c(Br)cc(Br)cc32)[nH]c2ccccc12 (single isomer, unassigned) [Example 7, di-hydrochloride]
Result string: 7.10 to 7.62

Query string: Give me measured pKi, please, for this compound: O=c1cc(NCCCN[C@@H]2CCOc3c(Br)cc(Br)cc32)[nH]c2ccccc12 (single isomer, unassigned) [Example 6, di-hydrochloride]
Result string: 10.60 to 10.82

Query string: Give me measured pKi, please, for this compound: O=c1cc(NCCCN[C@@H]2CCOc3c(Br)cc(Br)cc32)[nH]c2ccsc12 (single isomer, unassigned) [Example 2, di-hydrochloride]
Result string: 10.60 to 10.82

----------
targetSystem: Clostridium difficile MetRS (Clostridioides difficile, UniProt Q181D9, C642S)
experiment: C. difficile MetRS inhibition (tRNA charging SPA assay)
Format: biochemical
recordedConditions: range stated for the group of listed examples; read-out: Ki, inhibition of Clostridium difficile MetRS
pKi: −log10 of the molar value.
readout: pKi

{"smilesRecord": "O=c1cc(NCCCN[C@H]2COc3c(Br)cc(Br)cc32)[nH]c2ccsc12", "targetSystem": "Clostridium difficile MetRS (Clostridioides difficile, UniProt Q181D9, C642S)", "pKi": "7.10 to 7.62"}

Query string: Give me measured pKi, please, for this compound: `O=c1cc(NCCCN[C@@H]2COc3c(Br)cc(Br)cc32)[nH]c2ccsc12`
Result string: 10.60 to 10.82

Query string: Give me measured pKi, please, for this compound: `O=c1cc(NCCCN[C@@H]2CCCc3c(Br)cc(Br)cc32)[nH]c2ccsc12`
Result string: 10.60 to 10.82
